The reported numbers originate from ChEMBL document CHEMBL1135133.

- ASSAY SYSTEM: Glycogen synthase kinase-3 beta (Homo sapiens, UniProt P49841)
- Sequence (P49841 whole entry): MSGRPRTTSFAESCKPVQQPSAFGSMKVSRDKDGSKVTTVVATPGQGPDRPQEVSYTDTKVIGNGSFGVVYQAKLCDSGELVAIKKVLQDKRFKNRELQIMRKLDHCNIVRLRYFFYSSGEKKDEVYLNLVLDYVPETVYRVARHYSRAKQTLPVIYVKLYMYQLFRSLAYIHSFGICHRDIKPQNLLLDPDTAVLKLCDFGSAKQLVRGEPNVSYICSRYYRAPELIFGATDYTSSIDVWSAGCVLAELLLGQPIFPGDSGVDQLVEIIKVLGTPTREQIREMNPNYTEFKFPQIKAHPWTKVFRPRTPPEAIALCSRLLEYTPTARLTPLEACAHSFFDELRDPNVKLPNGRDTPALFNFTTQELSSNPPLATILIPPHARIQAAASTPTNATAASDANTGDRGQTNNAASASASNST
MEASURED PARAMETER: IC50 (µM)
Dear colleague, please return just the value in µM, with no unit written.

Take a look at these entries with their results.
INSERT INTO measurements (compound_structure_string, result_number) VALUES
  ('Ic1ccc(CSc2nnc(-c3ccncc3)o2)cc1', 198),
  ('O=C(O)Cc1ccc(CSc2nnc(-c3ccncc3)o2)cc1', 8),
  ('Clc1cccc(CSc2nnc(-c3ccncc3)o2)c1', 0.82);

Now, please, on to the next compound.
Incoming: Provide value of IC50 for this record tested with Glycogen synthase kinase-3 beta (Homo sapiens, UniProt P49841): O=C(O)c1ccc(CSc2nnc(-c3ccncc3)o2)cc1
Outgoing: 29
